Documented half-life at 2 µM across a set of compounds
- procedure summary: Half life in dog intestine S9 fraction at 2 uM by LC/MS/MS analysis
- condition label: intestine S9 fraction, t1/2
measure: half-life at 2 µM (min)

compound: CC(C)COC(=O)[C@H](Cc1ccccc1)NP(=O)(CO[C@@H]1C=C(F)[C@H](n2cnc3c(N)ncnc32)O1)Oc1ccccc1 (stereo not given in full)
measure: half-life at 2 µM
recorded value: 8.3
//
compound: C[C@H](NP(=O)(CO[C@@H]1C=C(F)[C@H](n2cnc3c(N)ncnc32)O1)Oc1ccccc1)C(=O)OC1CCC1 (stereo in doubt; 18r)
measure: half-life at 2 µM
recorded value: 25
//
compound: Nc1ncnc2c1ncn2[C@@H]1O[C@H](OCP(=O)(N[C@@H](Cc2ccccc2)C(=O)OCC2CCC2)Oc2ccccc2)C=C1F (stereo not given in full)
measure: half-life at 2 µM
recorded value: 3.4
//
compound: C[C@H](NP(=O)(CO[C@@H]1C=C(F)[C@H](n2cnc3c(N)ncnc32)O1)Oc1ccccc1)C(=O)OC1CCC1.Cl.Cl (stereo not given in full)
measure: half-life at 2 µM
recorded value: 3.9
//
compound: CC(C)OC(=O)[C@H](C)NP(=O)(CO[C@@H]1C=C(F)[C@H](n2cnc3c(N)ncnc32)O1)Oc1ccccc1 (stereo in doubt; 24)
measure: half-life at 2 µM
recorded value: 15
